We begin with a simple list: items and their reported Percent Effect.
System: Plasmodium falciparum
PROCEDURE DETAILS: Calibr Malaria Delayed Death Assay SOP
Type: functional, organism-based
Parameters: scale not given: in the data most compounds retested in dose-response had high values
TEST CONTEXT: concentration 4.99e-06 (unit not given; other assays of the set use mol/L)
The campaign covered roughly 38,000 compounds. About 1,200 (3.2%) showed an effect of 50% or more. The median lay at about -58%. The list comes from a sample in which strong results are over-represented; it also holds close analogues and randomly drawn compounds.
API: value field is a number in %; no unit string.

Example entries and their recorded answers appear below.
MOLECULE	MEASUREMENT UNIT	NUMBER
CC(C)c1cc(NC(=O)c2ccc(C(=O)NC(C)(C)C)cc2)[nH]n1	%	62.94
CC(=O)N1CCc2[nH]c(=O)ccc2C1	%	-39.7

Enquiry: Return value of Percent Effect for input `CN(Cc1ccco1)[C@@H]1CN(Cc2cnn(C)c2)[C@@H]2CCCO[C@H]12.O=C(O)C(F)(F)F.O=C(O)C(F)(F)F` , no commentary.
Return: 23.66

---

Test system: Plasmodium falciparum
PROCEDURE DETAILS: Calibr Malaria Delayed Death Assay SOP
Type: functional, organism-based
Design: scale not given: in the data most compounds retested in dose-response had high values
TEST CONTEXT: concentration 4.99e-06 (unit not given; other assays of the set use mol/L)
In all, about 38,000 compounds went through this assay and about 1,200 (3.2%) showed an effect of 50% or more. The median lay at about -58%. The sample as a whole holds a higher share of strong results than the screen did.
QUANTITY KIND: Percent Effect (%)
API: value field is a number in %; no unit string.

COMPOUND	TARGET OR TEST SYSTEM	Percent Effect (%)
Cc1cc(Cl)cc(C)c1CNC1CCN(CC(=O)N(C)C)CC1	Plasmodium falciparum	52.71
COc1ncccc1CN1CCC2(CC1)CN(c1ccccn1)CCO2.O=C(O)C(F)(F)F.O=C(O)C(F)(F)F.O=C(O)C(F)(F)F	Plasmodium falciparum	55.38
COCC(=O)N1CCC2(CC1)CN(c1ccccn1)CCO2.O=C(O)C(F)(F)F	Plasmodium falciparum	-99.25
CCn1c(CN(C)Cc2cnc(C)s2)nc2cc(F)ccc21	Plasmodium falciparum	-16.92
O=C(COCC1CCCO1)N(Cc1cccnc1)c1ccc(F)cc1 (stereo unspecified)	Plasmodium falciparum	-38.29

Enquiry: Please report the measured Percent Effect for `Cc1cc(CNCC2(O)CCOCC2)ccc1F` tested on Plasmodium falciparum.
Return: 16.95

Enquiry: Please report the measured Percent Effect for `Cc1ccc(C2(CN(C)Cc3sccc3C)CCNCC2)nc1` tested on Plasmodium falciparum.
Return: 76.73

Enquiry: Please report the measured Percent Effect for `Cc1cc(CNCC2(O)CCOCC2)ccc1Br` tested on Plasmodium falciparum.
Return: 44

Enquiry: Please report the measured Percent Effect for `CCN(Cc1csc(C)n1)c1cccc(CO)c1` tested on Plasmodium falciparum.
Return: -39.75

Enquiry: Please report the measured Percent Effect for Cc1ncc(CN2CCCC(c3cc(C(N)=O)[nH]n3)C2)s1 (stereo unspecified) tested on Plasmodium falciparum.
Return: -114.1

Enquiry: Please report the measured Percent Effect for OC1(CNCc2ccc(F)c(C(F)(F)F)c2)CCOC1 (stereo unspecified) tested on Plasmodium falciparum.
Return: -5.548

Enquiry: Please report the measured Percent Effect for c1cnc(N2CCCC(c3cncc(-n4ccnc4)n3)C2)nc1 (stereo unspecified) tested on Plasmodium falciparum.
Return: -26.3

Enquiry: Please report the measured Percent Effect for `COc1ccc(CN2CCC3(CC2)CN(c2ccccn2)CCO3)cc1.O=C(O)C(F)(F)F.O=C(O)C(F)(F)F` tested on Plasmodium falciparum.
Return: 60.62

Enquiry: Please report the measured Percent Effect for `NC(=O)Cn1cnc2nc3n(c2c1=O)CCC3` tested on Plasmodium falciparum.
Return: -106.4

Enquiry: Please report the measured Percent Effect for `Fc1ccc(CN2CCC3(CC2)CN(c2ccccn2)CCO3)cc1.O=C(O)C(F)(F)F.O=C(O)C(F)(F)F` tested on Plasmodium falciparum.
Return: 46.67

Enquiry: Please report the measured Percent Effect for `Cc1cc2cc(CNC3CCN(CC(=O)N(C)C)CC3)oc2cc1C` tested on Plasmodium falciparum.
Return: -160

---

System: Plasmodium falciparum
PROCEDURE DETAILS: Calibr Malaria Delayed Death Assay SOP
Format: functional, organism-based
Parameters: scale not given: in the data most compounds retested in dose-response had high values
TEST CONTEXT: concentration 4.99e-06 (unit not given; other assays of the set use mol/L)
The whole screen tested about 38,000 compounds, of which about 1,200 (3.2%) showed an effect of 50% or more. The median lay at about -58%. The sample holds strong results, similar compounds and a random draw of the others, so the mix is not that of the screen.
QUANTITY KIND: Percent Effect (%)
API: value field is a number in %; no unit string.

Example entries and their recorded answers appear below.
MOLECULE	MEASUREMENT UNIT	NUMBER
C[C@H]1C[C@@H]2CCN(C(=O)c3cnccn3)C[C@H]2O1	%	-123.8
COCc1cc(CNCc2c(C)n(CC(C)C)c3ccccc23)n[nH]1	%	-32.81

// switching to the query molecule
Enquiry: Return value of Percent Effect for input CCn1ccnc1CN1CCCC(CO)(CCCc2ccccc2)C1 (stereo not drawn) , no commentary.
Return: 5.561

---

Tested on: Plasmodium falciparum
PROCEDURE DETAILS: Calibr Malaria Delayed Death Assay SOP
Format: functional, organism-based
Parameters: scale not given: in the data most compounds retested in dose-response had high values
TEST CONTEXT: concentration 4.99e-06 (unit not given; other assays of the set use mol/L)
In all, about 38,000 compounds went through this assay and about 1,200 (3.2%) showed an effect of 50% or more. The median lay at about -58%. The list comes from a sample in which strong results are over-represented; it also holds close analogues and randomly drawn compounds.
We begin with a simple list: items and their reported Percent Effect.
API: value field is a number in %; no unit string.

Example entries and their recorded answers appear below.
COMPOUND	MEASUREMENT UNIT	Percent Effect
O=C(NC1CCN(CC2CCCC2)C1)N1CCC(OCC2CC2)CC1 (stereo unspecified)	%	63.12
CCn1cnnc1CNC(=O)c1cc(F)ccc1OC	%	-155.2
NC(=O)C1CCN(C(=O)NC2CCN(CC3CCCC3)C2)CC1 (stereo unspecified)	%	-59.5
CCC(C)NC(=O)Cn1ncc2c1c(C)nn2CC (stereo unspecified)	%	-14.73
CC(=O)N1CC(C)CN(C(=O)c2cnccn2)c2ccccc21 (stereo unspecified)	%	-30.69

// switching to the query compound
Enquiry: Return value of Percent Effect for input O=S(=O)(CC1CCCCO1)Nc1c(F)cccc1-n1cccn1 (stereo unspecified) , no commentary.
Return: -6.246

---

System: Plasmodium falciparum
PROCEDURE DETAILS: Calibr Malaria Delayed Death Assay SOP
Type: functional, organism-based
Parameters: scale not given: in the data most compounds retested in dose-response had high values
TEST CONTEXT: concentration 4.99e-06 (unit not given; other assays of the set use mol/L)
The campaign covered roughly 38,000 compounds. About 1,200 (3.2%) showed an effect of 50% or more. The median lay at about -58%. This is one part of a sample in which strong results are shown more often than they occur.
We begin with a simple list: items and their reported Percent Effect.
API: value field is a number in %; no unit string.

MOLECULE	TARGET OR TEST SYSTEM	MEASUREMENT UNIT	Percent Effect
Fc1cnc(N2CCCC3(CCN(Cc4cccs4)C3)C2)nc1.O=C(O)C(F)(F)F.O=C(O)C(F)(F)F (stereo not given)	Plasmodium falciparum	%	67.75
CN(C)CC1(O)CCCN(Cc2ccccc2OCC(=O)N(C)C)C1 (stereo not given)	Plasmodium falciparum	%	-89.01
Cc1ncsc1C(=O)NCCNc1ncccn1	Plasmodium falciparum	%	-77.02
CC(C)CN1CCCC2(CCN(c3ccccn3)C2)C1.O=C(O)C(F)(F)F (stereo not given)	Plasmodium falciparum	%	70.33

// switching to the query molecule
Enquiry: Return value of Percent Effect for input `CCC(=O)N1CCC[C@]2(C(=O)N(C)C)CN(c3ccccn3)C[C@@H]2C1.O=C(O)C(F)(F)F` , no commentary.
Return: -7.405

---

We begin with a simple list: items and their reported Percent Effect.
Test system: Plasmodium falciparum
PROCEDURE DETAILS: Calibr Malaria Delayed Death Assay SOP
Format: functional, organism-based
Parameters: scale not given: in the data most compounds retested in dose-response had high values
TEST CONTEXT: concentration 4.99e-06 (unit not given; other assays of the set use mol/L)
Among all 38,000 compounds or so, about 1,200 (3.2%) showed an effect of 50% or more. The median lay at about -58%. The entries come from a sample that favours strong results as a whole.
API: value field is a number in %; no unit string.

Example entries and their recorded answers appear below.
MOLECULE	Percent Effect [%]
NC(=O)C(NC(=O)COC1CCCC1)c1ccccc1 (stereo not given)	-14.18
Clc1ccc(CN2CCC(C3CCN(Cc4cccnc4)CC3)C2)cc1 (stereo not given)	62.84
Cc1cc(C)cc(S(=O)(=O)NCC2CNCCOC2)c1 (stereo not given)	6.797

Enquiry: Please report the measured Percent Effect for Cc1ccc(S(=O)(=O)NCC2CNCCOC2)cc1Cl (stereo not given) tested on Plasmodium falciparum.
Return: 47.92

Enquiry: Please report the measured Percent Effect for `CCOc1cccc(CNc2ccccc2C(=O)OC)c1O` tested on Plasmodium falciparum.
Return: -51.83

Enquiry: Please report the measured Percent Effect for `O=C(N1CCN(CCO)CC1)C1(O)Cc2ccccc2C1` tested on Plasmodium falciparum.
Return: -7.059

Enquiry: Please report the measured Percent Effect for Cc1cc(N2CCOCC2)ccc1NC(C)c1nc(C(C)C)no1 (stereo not given) tested on Plasmodium falciparum.
Return: -4.816
